Data origin: the supplement of paper PMC4466140

Target: CaSla1-D1-D2
Assay: SPOT peptide array binding signal intensity (averaged, normalized) (arbitrary units (background-subtracted, floor 0; scale differs between SH3 domains)); higher = stronger binding of the SH3 domain to the peptide
Param threshold (80) applies to SPOT peptide array binding signal intensity; output Criterion met when value >= threshold, Criterion not met when value < threshold.

{"binder": "FPGKKSPRLPHRNKK", "cat": "Criterion met"}
{"binder": "PPLPRAPPVPPATFE", "cat": "Criterion not met"}
{"binder": "ALFRLSFFFPLDPAY", "cat": "Criterion met"}
{"binder": "STPQTMRQAPKRPDA", "cat": "Criterion met"}
{"binder": "VNIPSPSSSPPPIPK", "cat": "Criterion not met"}
{"binder": "GSKSGPPPRPKKPST", "cat": "Criterion met"}
{"binder": "RSRRSSFAYPQQVAI", "cat": "Criterion not met"}
{"binder": "MSPLGAPPPPPHKDH", "cat": "Criterion not met"}
{"binder": "LKQRFFLMFPKSIIW", "cat": "Criterion met"}
{"binder": "GRSRLFPHSPLGRSS", "cat": "Criterion not met"}
{"binder": "IRMPSNPALPKKLLN", "cat": "Criterion met"}
{"binder": "PPIPNAPLSPAPAVP", "cat": "Criterion not met"}
{"binder": "AAHKTKPSIPPKKVE", "cat": "Criterion met"}
{"binder": "RRARRQMGIPTISQV", "cat": "Criterion met"}
